- System: NCI-H23 lung
- Protocol: NCI-60 one-dose screen, 48 h
- Condition: 10 µM unless noted
The panel holds about 83,000 compounds, 20% with a hit somewhere; the sample as a whole holds those more often. Calls of active or inactive are those of the source. Rule for the calls: active = growth percent below 10; inactive = the rest.
I would appreciate it if you answered using one of these outcomes: active, inactive

These solved cases illustrate the format of a correct answer.
CC1=C(C(=O)n2c3ccccc3c3ccccc32)C(c2cccc([N+](=O)[O-])c2)C(C(=O)n2c3ccccc3c3ccccc32)=C(C)N1; inactive
O=C(/C=C/c1ccc(Br)cc1)c1ccc(-n2cc(CN3CCN(c4cc5c(cc4F)c(=O)c(C(=O)O)cn5C4CC4)CC3)nn2)cc1; inactive
COc1cc2c(cc1O)[C@@]1(C)[C@H](c3ccccc3Br)OC(=O)N1CC2; inactive
O=c1nc(Nc2nc3ccccc3s2)[nH]c(=O)c2ccccc12; inactive
Cn1ncc2ccc(-c3nc(-c4ccccc4)[nH]c3-c3n[nH]c(=O)n3C3CC3)cc21; inactive
C=C1C(=O)O[C@H]2[C@H]1CC/C(Cn1cc(-c3cc(C(F)(F)F)cc(C(F)(F)F)c3)nn1)=C\CC[C@@]1(C)O[C@@H]21; active
COc1ccc(Cc2nnc(Nc3nc4ccccc4s3)s2)cc1; inactive
Cc1cccc(-n2c(C)nc3ccc(N4CCCNC4=O)cc3c2=O)c1; inactive

--- query ---
Request: Recorded test call requested for C=C1C(=O)O[C@H]2[C@H]1CC/C(COC(=O)NCCCCCCCCNC(=O)OC/C1=C/CC[C@@]3(C)O[C@H]3[C@H]3OC(=O)C(=C)[C@@H]3CC1)=C\CC[C@@]1(C)O[C@@H]21
Result: active

* * *

- Test system: NCI-H460 lung
- Protocol: NCI-60 one-dose screen, 48 h (100 = growth as untreated, 0 = no growth, -100 = all killed)
- Condition: 10 µM unless noted
- Method: Growth inhibition of the NCI-H460 human Non-Small Cell Lung tumor cell line is measured as a screen for anti-cancer activity. Cells are grown in 96 well plates and exposed to the test compound for 48 hours. Compounds are tested at a single concentration, which is 10^-5 M for most compounds. The reported endpoint is percent growth (GI% or GIPRCNT), where numbers from 0 - 100% represent growth inhibition, and numbers from -100% - 0 represent cell death. […]
Compounds without any hit were thinned out: in the full panel of roughly 83,000, 20% have a hit.
Measured parameter: growth (%)
Kindly provide the numeric value in % only, without the unit symbol.

Answered cases to consult:
CC1(C)CC2=C3C=C[C@@H]4[C@@]5(C)CC[C@H](O)C(C)(C)[C@@H]5CC[C@@]4(C)[C@]3(C)CC[C@@]2(C(=O)O)CC1=O; 63.2
O=C(OC[C@@H]1CO1)c1cccc2c(=O)c3ccccc3[nH]c12; -21.8
CCOC(=O)c1ccc2c(c1)c1c(C)c3ccncc3c(C)c1n2C; -5.22

Request: Consider the compound NS(=O)(=O)c1ccc(N/C=C/C(=O)c2cc3ccccc3oc2=O)cc1 and give its measured growth.
Result: 96.8

Request: Consider the compound CC(C)c1ccc(NC(=O)Nc2ccc(NC(=O)c3ccccc3N)cc2)cc1 and give its measured growth.
Result: 22.7

* * *

The following molecules are shown together with reported growth values.
- System: RPMI-8226 leukemia
- Protocol: NCI-60 one-dose screen, 48 h (100 = growth as untreated, 0 = no growth, -100 = all killed)
- Condition: 10 µM unless noted
This is part of a sample that, as a whole, favours compounds with a hit. Of some 83,000 tested, about 20% had one in any assay.
Kindly provide the numeric value in % only, without the unit symbol.

CCCCCCCCn1ccc2cc(NC(=O)Cn3cc(CN4CCCCCC4)nn3)ccc21; -9.08
c1ccc2cc(Cn3c[n+](Cc4ccc5ccccc5c4)c4ccccc43)ccc2c1; -53.6
CC[C@]12C=CCN3CC[C@@]4(c5ccc(OC)cc5N(C)[C@H]4[C@@](O)(C(=O)OC)[C@@H]1OC(=O)CCCN1CCOCC1)[C@@H]32; 96.2
COc1cc(C(=O)c2c(N)ncn2-c2ccccc2)cc(OC)c1OC; 136

Proceeding to the next molecule to report its growth.
Request: Consider the molecule C=C1C(=O)O[C@H]2[C@H]1CC/C(COC(=O)NCCCCCCCCNC(=O)OC/C1=C/CC[C@@]3(C)O[C@H]3[C@H]3OC(=O)C(=C)[C@@H]3CC1)=C\CC[C@@]1(C)O[C@@H]21 and give its measured growth.
Result: -42.8
